# targetEntity: T1, human TPBG protein, full-length, on the cell surface (human, UniProt Q13641 32-420)
# T1 construct: whole, on cells; Transfected HEK293 (293F-hTPBG clones) and CHO-k1 (CHOk1-hTPBG 3A2F1) cells; also used here for endogenous TPBG on the TPBG-positive tumour lines NCI-H1568, NCI-H1975 and MDA-MB-468 in the killing assays; also called hTPBG; 5T4
# T1 sequence (looked up): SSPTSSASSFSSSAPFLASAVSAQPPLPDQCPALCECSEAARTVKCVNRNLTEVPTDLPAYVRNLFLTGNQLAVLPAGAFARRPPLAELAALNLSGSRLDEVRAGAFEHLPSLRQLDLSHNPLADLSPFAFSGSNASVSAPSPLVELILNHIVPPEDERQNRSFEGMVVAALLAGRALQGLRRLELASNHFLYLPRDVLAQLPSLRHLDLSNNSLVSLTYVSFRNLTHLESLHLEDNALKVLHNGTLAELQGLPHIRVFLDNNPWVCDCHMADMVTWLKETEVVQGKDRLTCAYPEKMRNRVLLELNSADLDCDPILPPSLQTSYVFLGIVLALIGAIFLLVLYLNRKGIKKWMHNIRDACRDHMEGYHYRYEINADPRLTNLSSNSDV
# testProtocol: FACS on CHOK1-hTPBG cells
measuredQuantity: pEC50
API: returns pEC50 as number; meaning -log10 of concentration in mol/L.

// query Suppose we examine the binder Chimeric antibody 28D4 (antibody, V domains shown, Mouse variable domains on human IgG1 heavy and human kappa light constant regions; also called c28D4; TPBG chimeric antibody 28D4) VH: DVQLVESGGGLVRPGGSLKLSCAASGFTFSNYVMSWARQSPEKRLEWVAEISTGGSHTYYSDTVTGRFTISRDNAKKALYLEMSSLRSEDTAIYYCIMFYYGSSYSMDYWGQGTSVTVSS VL: DIQMTQSTSSLSASLGDRITISCRASQDIRNYLNWYQQKPDGTVKLLIYHTSRLHSGVPSRFSGSGSGTDYSLTISNLEQEDIATYFCQQGDTLPLTFGAGTRLELK ; what pEC50 value has been reported?
// result 9.48

// query Suppose we examine the binder Humanized antibody 28D4-7 (antibody, V domains shown, also called h28D4-7) VH: EVQLVESGGGLVKPGGSLRLSCAASGFTFSNYVMSWIRQAPGKGLEWVAEISTGGSHTYYSDTVTGRFTISRDNAKKSLYLQMNSLRAEDTAVYYCIMFYYGSSYSMDYWGQGTTVTVSS VL: DIQMTQSPSSLSASVGDRVTITCRASQDIRNYLNWYQQKPGKAPKLLIYHTSRLHSGVPSRFSGSGSGTDYTFTISSLQPEDIATYYCQQGDTLPLTFGQGTRLEIK ; what pEC50 value has been reported?
// result 9.43

// query Suppose we examine the binder Humanized antibody 28D4-3 (antibody, V domains shown, also called h28D4-3) VH: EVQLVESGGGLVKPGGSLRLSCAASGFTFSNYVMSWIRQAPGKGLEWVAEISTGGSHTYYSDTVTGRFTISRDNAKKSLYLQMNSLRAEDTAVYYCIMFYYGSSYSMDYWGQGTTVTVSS VL: DIQMTQSPSSLSASVGDRVTITCRASQDIRNYLNWYQQKPGKAPKLLIYHTSRLHSGVPSRFSGSGSGTDFTFTISSLQPEDIATYYCQQGDTLPLTFGQGTRLEIK ; what pEC50 value has been reported?
// result 9.59

Continuing:
// query Suppose we examine the binder Humanized antibody 28D4-4 (antibody, V domains shown, also called h28D4-4) VH: EVQLVESGGGLVKPGGSLRLSCAASGFTFSNYVMSWARQAPGKRLEWVAEISTGGSHTYYSDTVTGRFTISRDNAKKSLYLQMNSLRAEDTAVYYCIMFYYGSSYSMDYWGQGTTVTVSS VL: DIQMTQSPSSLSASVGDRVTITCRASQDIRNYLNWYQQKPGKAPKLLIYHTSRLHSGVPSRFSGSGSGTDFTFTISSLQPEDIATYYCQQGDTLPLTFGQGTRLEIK ; what pEC50 value has been reported?
// result 9.42
